Origin of the recorded values: patent US12492188B2

Reported IC50 by item:
molecular target: human TLR8 (Homo sapiens, UniProt Q9NR97); experiment: TLR8 inhibition reporter assay (HEK-Blue cells, secreted embryonic alkaline phosphatase reporter); settings: HEK-Blue cells overexpressing human TLR8, stimulated with R848 15.9 μM; read-out: TLR 8 IC50
Sequence (Q9NR97 27-1041): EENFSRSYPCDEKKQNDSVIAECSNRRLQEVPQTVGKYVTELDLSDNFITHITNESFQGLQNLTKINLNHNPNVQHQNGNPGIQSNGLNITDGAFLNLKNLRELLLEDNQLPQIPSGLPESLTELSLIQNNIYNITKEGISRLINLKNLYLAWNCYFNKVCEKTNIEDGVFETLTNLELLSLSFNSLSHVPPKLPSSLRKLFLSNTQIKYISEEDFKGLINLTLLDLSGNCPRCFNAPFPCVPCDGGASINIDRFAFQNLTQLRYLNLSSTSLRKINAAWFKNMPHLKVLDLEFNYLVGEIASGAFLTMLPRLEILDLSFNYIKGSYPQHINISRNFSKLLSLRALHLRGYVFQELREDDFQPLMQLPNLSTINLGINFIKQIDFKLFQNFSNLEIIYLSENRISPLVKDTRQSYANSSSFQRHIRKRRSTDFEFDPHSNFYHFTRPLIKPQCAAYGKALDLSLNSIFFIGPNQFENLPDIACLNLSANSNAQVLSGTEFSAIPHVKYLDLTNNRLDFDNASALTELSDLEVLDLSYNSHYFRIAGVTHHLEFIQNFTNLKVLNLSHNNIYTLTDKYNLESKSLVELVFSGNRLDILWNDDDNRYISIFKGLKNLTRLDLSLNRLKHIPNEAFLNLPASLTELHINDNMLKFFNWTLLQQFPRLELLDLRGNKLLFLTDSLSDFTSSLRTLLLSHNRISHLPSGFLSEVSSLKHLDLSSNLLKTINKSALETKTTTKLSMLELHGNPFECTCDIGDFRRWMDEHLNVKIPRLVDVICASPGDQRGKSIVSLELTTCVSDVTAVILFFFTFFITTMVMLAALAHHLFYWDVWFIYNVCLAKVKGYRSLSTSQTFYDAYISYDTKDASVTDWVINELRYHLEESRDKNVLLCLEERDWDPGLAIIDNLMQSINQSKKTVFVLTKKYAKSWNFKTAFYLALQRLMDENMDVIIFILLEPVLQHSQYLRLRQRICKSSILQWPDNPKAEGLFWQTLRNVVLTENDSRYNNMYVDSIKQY

Query IC50 for Cn1c(-c2ccc(S(C)(=O)=O)cc2)nc2cc(C3CCN(C4CCN(CC5CC5)CC4)CC3)c(F)cc21
> 50 µM

Name the recorded IC50 of the molecule listed here: COc1ccc(-c2nc3c(C)cc(C4CCN(C5CCN(C(C)C)CC5)CC4)cc3n2C)cc1OC
> 50 µM

Read off the recorded IC50 for Cn1c(-c2ccc(S(C)(=O)=O)cc2)nc2cc(C3CCN(C4CC5CCC(C4)N5C4CCC4)CC3)cc(F)c21 (single isomer, unassigned) [Example 215]
> 50 µM

----------
Biological target: human TLR9 (Homo sapiens, UniProt Q9NR96)
Construct: host or cells: HEK-Blue cells (HEK293-derived reporter line)
Sequence (Q9NR96 26-1032): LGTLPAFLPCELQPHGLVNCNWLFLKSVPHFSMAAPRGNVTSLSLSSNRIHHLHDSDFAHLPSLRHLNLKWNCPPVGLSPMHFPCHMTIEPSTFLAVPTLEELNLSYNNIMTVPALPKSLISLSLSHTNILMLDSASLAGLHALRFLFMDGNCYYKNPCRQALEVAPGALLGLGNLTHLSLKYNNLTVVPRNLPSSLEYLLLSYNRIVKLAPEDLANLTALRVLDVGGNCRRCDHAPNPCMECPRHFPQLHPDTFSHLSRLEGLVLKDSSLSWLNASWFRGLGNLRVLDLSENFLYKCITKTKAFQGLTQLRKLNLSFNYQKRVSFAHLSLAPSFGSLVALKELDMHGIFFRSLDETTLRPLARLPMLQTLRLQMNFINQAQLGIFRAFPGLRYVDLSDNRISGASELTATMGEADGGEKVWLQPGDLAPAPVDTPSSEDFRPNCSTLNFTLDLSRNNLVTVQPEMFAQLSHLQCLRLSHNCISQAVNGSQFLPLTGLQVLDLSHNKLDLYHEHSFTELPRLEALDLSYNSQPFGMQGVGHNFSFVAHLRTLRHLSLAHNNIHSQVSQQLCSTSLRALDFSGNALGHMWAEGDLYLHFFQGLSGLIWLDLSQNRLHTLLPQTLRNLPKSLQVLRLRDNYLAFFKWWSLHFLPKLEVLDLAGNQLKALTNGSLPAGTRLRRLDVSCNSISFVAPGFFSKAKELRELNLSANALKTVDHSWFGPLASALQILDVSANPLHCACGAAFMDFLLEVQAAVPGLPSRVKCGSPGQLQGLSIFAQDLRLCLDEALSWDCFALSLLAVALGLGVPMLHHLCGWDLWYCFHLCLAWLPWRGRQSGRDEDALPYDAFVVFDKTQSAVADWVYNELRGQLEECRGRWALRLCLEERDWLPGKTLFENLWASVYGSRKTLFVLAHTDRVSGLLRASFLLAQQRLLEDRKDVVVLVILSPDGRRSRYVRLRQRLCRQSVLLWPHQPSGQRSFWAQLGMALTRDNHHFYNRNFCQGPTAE
Assay: TLR9 inhibition reporter assay (HEK-Blue cells, secreted embryonic alkaline phosphatase reporter)
Assay type: cell-based
Conditions: HEK-Blue cells overexpressing human TLR9, stimulated with ODN2006 5 nM; read-out: TLR 9 IC50
Text: TLR7/8/9 Inhibition Reporter Assays HEK-Blue™-cells (Invivogen) overexpressing human TLR7, TLR8 or TLR9 receptors were used for screening inhibitors of these receptors using an inducible SLAP (secreted embryonic alkaline phosphatase) reporter gene under the control of the […] minimal promoter fused to five NF-κB and AP-1-binding sites. […]
Endpoint: IC50 (nM)

Examples from the recorded data:
> print(dat)
                                   compound  endpoint  reported.measurement
1  COc1ccc(-c2nc3c(C)cc(C4CCN(C5CC6CCC(C5)N6CC5CC5)CC4)cc3n2C)cc1OC (stereo not shown) [Example 148]      IC50                    34
2  CCOP(=O)(OCC)c1ccc(-c2nc3c(C)cc(C4CCN(C5CCN(CC(C)C)CC5)CC4)cc3n2C)cc1 [Example 421]      IC50                   139

1: CC(C)CN1C2CCC1CC(N1CCC(c3cc4nc(-c5ccc(S(C)(=O)=O)cc5)n(C)c4cc3F)CC1)C2 (stereo not shown) [Example 247]
2: Cc1cc(C2CCN(C3CC4CCC(C3)N4CC(C)C)CC2)cc2[nH]c(-c3ccc(S(C)(=O)=O)c(F)c3)nc12 (stereo not shown) [Example 346]
Which shows the larger IC50 value: 1 or 2 ? # answer = label of selected item
2
(2: 56 nM, 1: 30 nM)

----------
target: human TLR9 (Homo sapiens, UniProt Q9NR96); construct: host or cells: HEK-Blue cells (HEK293-derived reporter line); experiment: TLR9 inhibition reporter assay (HEK-Blue cells, secreted embryonic alkaline phosphatase reporter); assay type: cell-based
Endpoint: IC50 (nM)

Illustrative cases are given below, each with its answer.
> print(dat)
                                   molecule  reported.measurement
1  COc1ccc(-c2nc3c(F)cc(C4CCN(C5CCN(C6CC6)CC5)CC4)cc3[nH]2)cc1OC                   270
2  Cc1cc(C2CCN(C3CC4CCC(C3)N4C3CCC3)CC2)cc2c1nc(-c1ccc(S(C)(=O)=O)cc1)n2C (single isomer, unassigned) [Example 152]                    84
3  Cn1c(-c2ccc(S(C)(=O)=O)cc2)nc2c(F)c(C3CCN(C4CC5CCC(C4)N5CC4COC4)CC3)ccc21 (single isomer, unassigned) [Example 194]                   630
4  COCCN1C2CCC1CC(N1CCC(c3cc(C)c4nc(-c5ccc(OC)c(OC)c5)n(C)c4c3)CC1)C2 (single isomer, unassigned) [Example 168]                    51
5  COCCN1CCC(N2CCC(c3ccc4nc(-c5ccc(S(C)(=O)=O)cc5)n(C)c4c3F)CC2)CC1                  1000
6  COCCN1CCC(N2CCC(c3cc(F)c4nc(-c5ccc(S(C)(=O)=O)cc5)n(C)c4c3)CC2)CC1                   120

1: Cc1cc(C2CCN(C3CC4CCC(C3)N4CC3CC3)CC2)cc2c1nc(-c1ccc(S(C)(=O)=O)cc1)n2C (single isomer, unassigned) [Example 154]
2: Cn1c(-c2ccc(S(C)(=O)=O)cc2)nc2cc(F)c(C3CCN(C4CCN(CC5CC5)CC4)CC3)cc21
3: Cn1c(-c2ccc(S(C)(=O)=O)cc2)nc2cc(F)c(C3CCN(C4CC5CCC(C4)N5C4COC4)CC3)cc21 (single isomer, unassigned) [Example 235]
Sort the molecules on IC50; start with the lowest figure. Show the ranking through the labels, in the order asked for.
1, 2, 3
(1: 30 nM, 2: 190 nM, 3: 1700 nM)

1: COc1ccc(-c2nc3c(C)cc(C4CCN(C5CC6CCC(C5)N6C5COC5)CC4)cc3n2C)cc1OC (single isomer, unassigned) [Example 164]
2: COCCN1C2CCC1CC(N1CCC(c3cc(C)c4nc(-c5ccc(OC)c(OC)c5)n(C)c4c3)CC1)C2 (single isomer, unassigned) [Example 169]
Between these two entries, 1 and 2 , state which has the higher IC50. Output the label that corresponds to your choice.
2
(2: 200 nM, 1: 110 nM)

P: Cn1c(-c2ccc(S(C)(=O)=O)cc2)nc2cc(F)c(C3CCN(C4CC5CCC(C4)N5C4COC4)CC3)cc21 (single isomer, unassigned) [Example 234]
Q: Cc1cc(C2CCN(C3CC4(C3)CN(CC(C)C)C4)CC2)cc2c1nc(-c1ccc(S(C)(=O)=O)cc1)n2C
Consider entries P and Q . Which has the numerically lower IC50? Select an item and report its label.
P
